The entries below come with measured Maximal Inhibition (%) values attached.
target: CepR (Burkholderia cenocepacia, UniProt B4EMD0); experiment: CepR antagonism in E. coli β-galactosidase reporter (Ec-reporter), competition against C8-AHL; type: cell-based, B. cenocepacia; settings: Ec-reporter; against 10 nM C8-AHL
Sequence (B4EMD0 1-239): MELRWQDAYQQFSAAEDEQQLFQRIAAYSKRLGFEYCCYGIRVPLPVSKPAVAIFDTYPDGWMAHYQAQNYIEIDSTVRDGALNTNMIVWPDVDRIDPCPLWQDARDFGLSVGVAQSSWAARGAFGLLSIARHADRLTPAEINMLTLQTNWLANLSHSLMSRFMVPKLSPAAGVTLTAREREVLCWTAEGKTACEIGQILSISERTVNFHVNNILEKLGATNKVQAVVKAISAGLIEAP
Outcome measure: Maximal Inhibition (%)

>  <Molecule>
O=C(Cc1cccc(C(F)(F)F)c1)N[C@H]1CCOC1=O [Compound E3]

>  <Result>
77%

$$$$
>  <Molecule>
O=C(CC1CCCC1)N[C@H]1CCOC1=O [Compound B12]

>  <Result>
69%

$$$$
>  <Molecule>
O=C(Cc1ccccc1)N[C@H]1CCOC1=O [Compound C1]

>  <Result>
8%

$$$$
>  <Molecule>
O=C(COc1cccc([N+](=O)[O-])c1)N[C@H]1CCOC1=O [Compound E25]

>  <Result>
70%

$$$$
>  <Molecule>
O=C(Cc1ccc(F)c(C(F)(F)F)c1)N[C@H]1CCOC1=O [Compound E10]

>  <Result>
79%

$$$$
>  <Molecule>
CCCC(=O)N[C@H]1CCOC1=O [Compound C4-AHL, butanoyl L-homoserine lactone, reference compound]

>  <Result>
58%

$$$$
>  <Molecule>
CCCCCCCS(=O)(=O)N[C@H]1CCOC1=O [Compound A12]

>  <Result>
68%

$$$$

Every entry's value here was drawn from paper PMC6748986.
